MEASURED ON: UniProt P30560
Sequence (P30560 whole entry): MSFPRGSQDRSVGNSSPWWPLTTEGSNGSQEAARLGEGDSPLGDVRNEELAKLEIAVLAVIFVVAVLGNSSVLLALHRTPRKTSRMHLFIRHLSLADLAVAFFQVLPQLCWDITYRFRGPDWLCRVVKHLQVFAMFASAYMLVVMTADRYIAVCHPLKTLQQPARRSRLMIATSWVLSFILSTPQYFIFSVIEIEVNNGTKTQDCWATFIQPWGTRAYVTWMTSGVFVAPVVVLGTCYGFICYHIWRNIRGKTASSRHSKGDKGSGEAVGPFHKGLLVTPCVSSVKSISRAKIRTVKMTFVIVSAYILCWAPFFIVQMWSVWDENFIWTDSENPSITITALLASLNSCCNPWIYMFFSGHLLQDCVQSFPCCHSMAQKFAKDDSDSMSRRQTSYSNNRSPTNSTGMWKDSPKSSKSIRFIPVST
ASSAY PROCEDURE: Vasopressin 1 (V1) receptor binding, rat
CONDITION DETAILS: Test 1 V1 receptor binding
Where a name gives a salt, the structure may show the parent alone.
List of log10 of IC50 values.
READOUT KIND: log10 of IC50 (log10 of the value in nM)

- COc1cc(C(=O)N2CCCCc3ccccc32)ccc1C(=O)Nc1cccc2[nH]c(C(=O)N(C)C)nc12: 0.34
- COc1cc(C(=O)N2CCCCc3ccccc32)ccc1C(=O)Nc1cccc2[nH]c(N(C)CCN)nc12 [Example 76, dihydrochloride]: -0.70
- CCc1nc2c(NC(=O)c3ccc(C(=O)N4CCCCc5ccccc54)cc3OC)cccc2[nH]1 [Example 55, hydrochloride]: 0.23
- COc1cc(C(=O)N2CCCCc3ccccc32)ccc1C(=O)Nc1cccc2[nH]c(C)nc12: 0.32
- COc1cc(C(=O)N2CCCCc3ccccc32)ccc1C(=O)Nc1cccc2[nH]cnc12 [Example 50, hydrochloride]: 0.26

###

MEASURED ON: Vasopressin 1 (VI) Receptor (Homo sapiens)
Construct: Platelet-rich plasma (PRP) was prepared by centrifugation of whole blood; from tissue; host or cells: platelet membranes from blood of a normal subject
Sequence (P37288 whole entry): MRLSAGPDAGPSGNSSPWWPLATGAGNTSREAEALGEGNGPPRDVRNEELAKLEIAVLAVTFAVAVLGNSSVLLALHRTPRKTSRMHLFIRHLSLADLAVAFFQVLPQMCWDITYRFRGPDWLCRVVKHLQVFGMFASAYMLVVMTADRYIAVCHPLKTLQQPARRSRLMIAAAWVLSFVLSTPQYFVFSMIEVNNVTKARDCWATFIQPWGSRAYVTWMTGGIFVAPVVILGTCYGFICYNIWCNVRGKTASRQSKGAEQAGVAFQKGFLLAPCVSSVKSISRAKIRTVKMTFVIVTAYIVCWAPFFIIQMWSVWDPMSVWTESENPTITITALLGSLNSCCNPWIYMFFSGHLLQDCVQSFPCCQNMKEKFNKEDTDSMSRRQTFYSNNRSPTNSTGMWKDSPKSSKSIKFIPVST
ASSAY PROCEDURE: Vasopressin 1 (V1) receptor binding, 3H-vasopressin competition on human platelet membranes
CONDITION DETAILS: competition with 1.5 nM 3H-vasopressin, 15 minutes at 30° C.
Where a name gives a salt, the structure may show the parent alone.
List of IC50 values.
READOUT KIND: IC50 (nM)

• CCc1nc2c(NC(=O)c3ccc(C(=O)N4CCCCc5ccccc54)cc3OC)cccc2[nH]1 [Example 55, hydrochloride] = 0.7
• COc1cc(C(=O)N2CCCCc3ccccc32)ccc1C(=O)Nc1cccc2[nH]c(N(C)CCN)nc12 [Example 76, dihydrochloride] = 0.08
• COc1cc(C(=O)N2CCCCc3ccccc32)ccc1C(=O)Nc1cccc2[nH]cnc12 [Example 50, hydrochloride] = 0.55
• COc1cc(C(=O)N2CCCCc3ccccc32)ccc1C(=O)Nc1cccc2[nH]c(C(=O)N(C)C)nc12 = 0.5
• COc1cc(C(=O)N2CCCCc3ccccc32)ccc1C(=O)Nc1cccc2[nH]c(C)nc12 = 0.41

###

List of IC50 values.
MEASURED ON: human V2 receptor (Homo sapiens, UniProt P30518)
Construct: expressed in transfected cells
Sequence (P30518 whole entry): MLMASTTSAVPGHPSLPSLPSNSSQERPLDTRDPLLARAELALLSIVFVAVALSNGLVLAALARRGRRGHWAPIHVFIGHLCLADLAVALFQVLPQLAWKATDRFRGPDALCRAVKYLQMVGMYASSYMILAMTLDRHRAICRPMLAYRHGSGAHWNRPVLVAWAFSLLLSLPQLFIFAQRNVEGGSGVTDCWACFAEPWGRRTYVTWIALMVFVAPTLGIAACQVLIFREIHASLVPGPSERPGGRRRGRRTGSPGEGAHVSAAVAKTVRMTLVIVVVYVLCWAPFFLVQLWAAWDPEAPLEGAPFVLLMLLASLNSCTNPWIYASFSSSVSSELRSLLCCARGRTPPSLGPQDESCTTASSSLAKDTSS
ASSAY PROCEDURE: Vasopressin 2 (V2) receptor binding, 3H-vasopressin competition on membranes of CHO cells expressing human V2 receptor
CONDITION DETAILS: human V2 receptor in CHO cells; competition with 0.5 nm 3H-vasopressin, 2 hours at 22° C.
Procedure: Vasopressin 2 (V2) Receptor Binding For binding assays, a receptor cDNA was permanently expressed in Chinese hamster ovary (CHO) cells. […] Competition assays were conducted at equilibrium (2 hours at 22° C.) by using 0.5 nm ^3H-vasopressin (40-87 Ci/mmol; New England Nuclear) in 100 mM Tris-HCl buffer (pH 7.4, containing 5 mM MgCl2, 5 μg/ml A-PMSF, 4 μg/ml leupeptin, 40 μg/ml bacitracin, 20 μg/ml chymostatin and 0.1% bovine serum albimin). Nonspecific binding was determined by using 1 μM vasopressin. […]
Where a name gives a salt, the structure may show the parent alone.
READOUT KIND: IC50 (nM)

* CCc1nc2c(NC(=O)c3ccc(C(=O)N4CCCCc5ccccc54)cc3OC)cccc2[nH]1 [Example 55, hydrochloride] | 104
* COc1cc(C(=O)N2CCCCc3ccccc32)ccc1C(=O)Nc1cccc2[nH]c(C)nc12 | 241
* COc1cc(C(=O)N2CCCCc3ccccc32)ccc1C(=O)Nc1cccc2[nH]c(N(C)CCN)nc12 [Example 76, dihydrochloride] | 140
* COc1cc(C(=O)N2CCCCc3ccccc32)ccc1C(=O)Nc1cccc2[nH]cnc12 [Example 50, hydrochloride] | 69
* COc1cc(C(=O)N2CCCCc3ccccc32)ccc1C(=O)Nc1cccc2[nH]c(C(=O)N(C)C)nc12 | 159

All figures here come from patent US6495542B1.
